Source: PubChem BioAssay AID1996

conditions: buffer; pH 7.4; 200.0 µM
Response key: TRUE means solubility kinetic >= 30 µg/mL; FALSE means solubility kinetic < 30 µg/mL.

Examples with answers:
Cc1ccsc1C(=O)N1CCN(c2ccccn2)CC1    TRUE
O=c1c2ccccc2nc(/C=C/c2ccccn2)n1-c1ccccc1    FALSE
CC1CCCN(Cc2csc(N)n2)C1 (stereo not given)    TRUE

Exam item: Determine whether measured solubility kinetic meets or exceeds 30 µg/mL for Cn1c(=O)[nH]c(=O)c2c1nc(N1CCCC1)n2CCO
Marked response: TRUE

Exam item: Determine whether measured solubility kinetic meets or exceeds 30 µg/mL for CC1CCCCN1C(=O)CCS(=O)(=O)c1cccc2nonc12 (stereo not given)
Marked response: TRUE

Exam item: Determine whether measured solubility kinetic meets or exceeds 30 µg/mL for Cl.OC(CNCc1ccccc1)COCc1ccc(Cl)cc1 (stereo not given)
Marked response: TRUE

----------
conditions: buffer; pH 7.4; 200.0 µM
Measured solubility kinetic values are reported for all entries that follow.
Write the value in µg/mL as a bare number.

Clc1ccc2c(NCc3ccccc3)ccnc2c1    19

Next molecule, solubility kinetic to be filled in.
Exam item: # return recorded solubility kinetic for input Cc1ccsc1C(=O)OCC(=O)Nc1ccc(Cl)cn1
Marked response: 14.7

----------
conditions: buffer; pH 7.4; 200.0 µM
Measured solubility kinetic values are reported for all entries that follow.

Known solubility kinetic results, listed for orientation:
O=S(=O)(NCC1CCCO1)c1ccccc1 (centres undefined)    > 36.2 µg/mL
C[N+](C)(C)CC#CCN1CCCC1=O.[I-]    > 48.3 µg/mL

Exam item: # return recorded solubility kinetic for input OC(C#CCN1CCCCCC1)(c1ccccc1)c1cccnc1 (centres undefined)
Marked response: > 48.1 µg/mL

Exam item: # return recorded solubility kinetic for input Cc1cc(NC(=O)CN(C)CC(=O)Nc2ccc(Cl)cc2)no1
Marked response: > 50.5 µg/mL

----------
Measured solubility kinetic values are reported for all entries that follow.
settings: buffer; pH 7.4; 200.0 µM

O=C(NCc1ccccc1)C1CCCN(c2cnccn2)C1 (configuration not stated)    > 44.5 µg/mL
COC(=O)[C@@H](NC(=O)NC1CCCCC1C)C(C)C (some centres not stated)    > 40.6 µg/mL
CN(CCC1CCOCC1)Cc1nc(Cc2ccccc2F)no1    > 50 µg/mL
COc1ccccc1C(=O)C1CCCN(C(=O)c2ccco2)C1 (configuration not stated)    > 47 µg/mL

Exam item: # return recorded solubility kinetic for input S=C(CN1CCCC1=S)N1CCOCC1
Marked response: > 36.7 µg/mL

Exam item: # return recorded solubility kinetic for input COc1ccc(CC(=O)NCCCCc2ccccc2)cc1OC
Marked response: > 49.1 µg/mL

Exam item: # return recorded solubility kinetic for input Cc1cc(C)c(S(=O)(=O)c2ccccc2F)c(=O)[nH]1
Marked response: > 42.2 µg/mL

Exam item: # return recorded solubility kinetic for input Cc1ccc(C)c(N2C(=O)CC(Cc3ccccc3)C2=O)c1.Cl (configuration not stated)
Marked response: > 49.5 µg/mL

Exam item: # return recorded solubility kinetic for input CCc1cc2c(=O)oc(-c3ccc(F)cc3)nc2s1
Marked response: < 0.6 µg/mL

Exam item: # return recorded solubility kinetic for input CCc1noc(C)c1C(=O)NCCc1ccc(S(N)(=O)=O)cc1
Marked response: > 50.6 µg/mL

Exam item: # return recorded solubility kinetic for input CCN(CC)CCC(C)OC(=O)c1ccc(O)cc1O.Cl (configuration not stated)
Marked response: > 47.7 µg/mL

Exam item: # return recorded solubility kinetic for input COP(=O)(OC)C(NC(C)=O)C(Cl)(Cl)Cl (configuration not stated)
Marked response: > 44.8 µg/mL
